20-μm pattern line width values, listed per item
protocol text: Evaluation 1: 20-μm pattern line width of transparent photosensitive composition
applied conditions: transparent composition, initiator 0.4 mmol; exposure energy quantity 10 mJ/cm^2
Respond using a number only.

CCn1c2ccc(/C(=N\OC(C)=O)c3ccc(OC(C)COC)cc3C)cc2c2cc([N+](=O)[O-])ccc21 (centres unmarked) [Compound C-2, reference compound] :: 21.3
CCCC1(CCC)c2cc(C(=O)C(CCSc3ccc(Cl)cc3)=NOC(C)=O)ccc2-c2ccc([N+](=O)[O-])cc21 :: 19.9
CCCCCCC1(CCCCCC)c2cc(C(=O)C(=NOC(C)=O)c3cc(C)ccc3C)ccc2-c2ccc(C(=O)c3ccc([N+](=O)[O-])cc3)cc21 :: 19.4
CCCC1(CCC)c2cc(C(=NOC(C)=O)c3ccccc3C)ccc2-c2ccc([N+](=O)[O-])cc21 :: 20.7

Consider the record given below.
Looking up CCCCCCC1(CCCCCC)c2cc(C(=NOC(C)=O)c3ccccc3C)ccc2-c2ccc([N+](=O)[O-])cc21 , I see its 20-μm pattern line width listed as 21.4
